Molecular target: Fab 4E10
Assay: SPR (Biacore 2000), Fab 4E10 on CM5 chip, peptide in flow
Where no end group is shown, it is not given here.
What Kd was measured for each of the following?
Numbers only here, please. The scale is nM.

Q: Given the binder NWFDITNWLWKKKK-NH2 [peptide 84-1, …-NH2] , write its reported Kd.
Result: 100

Q: Given the binder NWFDITNWLWYIKKKK-NH2 [peptide 94-1, …-NH2] , write its reported Kd.
Result: 18
